tested on: WI-38 cells; test: FACS analysis, Annexin V and PI staining; format: cell-based, human; conditions: 24 h, 5g 1000 µg/mL, 6c, 6d, 6k 500 µg/mL
PROPERTY_MEASURED: apoptotic cell death (of total cell number) (%)

INSERT INTO assay_data (molecule, result) VALUES
  ('O=C1C(Cl)C(c2ccc(Cl)cc2)N1c1nc(-c2cc(Cl)cc3c2-c2ccc(Cl)cc2C3)cs1 (stereo not shown)', 1.22),
  ('O=C1C(Cl)C(c2ccc(Br)cc2)N1c1nc(-c2cc(Cl)cc3c2-c2ccc(Cl)cc2C3)cs1 (stereo not shown)', 1.34),
  ('O=C1C(Cl)C(c2cccs2)N1c1nc(-c2cc(Cl)cc3c2-c2ccc(Cl)cc2C3)cs1 (stereo not shown)', 0.61),
  ('O=C(O)c1ccc(C2SCC(=O)N2c2nc(-c3cc(Cl)cc4c3-c3ccc(Cl)cc3C4)cs2)cc1 (stereo not shown)', 1.5);
